System: HeLa
assay.comment: SRB colorimetric assay of cell growth and viability, HeLa
Format: cell-based, human
condition.info: HELA; 48 hours exposure; read-out: LC50 HELA
Where a SMILES comes first, the peptide text is derived from it. Bridges are numbered along the chain shown (N, C = ends). [ ]: non-standard residue; d: D form. The star is where a group is joined. d(aIle) = CC[C@H](C)[C@@H](N)C(=O)O; d(aThr) = C[C@@H](O)[C@@H](N)C(=O)O; Hexanoyl(5-Me) = CC(C)CCCC(=O)*; Orn = NCCC[C@H](N)C(=O)O; Dhb = C/C=C(\N)C(=O)O
reported.endpoint: CC50 (nM)

INSERT INTO measurements (compound, measurement) VALUES
  ('C/C=C1\NC(=O)[C@H](Cc2cccc(Cl)c2)NC(=O)[C@@H](C(C)C)NC(=O)[C@@H]([C@@H](C)CC)NC(=O)[C@H](NC(=O)[C@H](NC(=O)[C@H](CCCN)NC(=O)[C@H]2CCCN2C(=O)[C@H](NC(=O)[C@@H](NC(=O)[C@@H](NC(=O)[C@H](NC(=O)CCCC(C)C)C(C)C)[C@@H](C)O)C(C)C)C(C)C)[C@@H](C)CC)[C@@H](C)OC(=O)[C@H](C(C)C)NC1=O [Compound 82, [Phe(3-Cl)^3]-KF]', 521),
  ('C/C=C1\NC(=O)[C@H](Cc2ccccc2)NC(=O)[C@@H](C(C)C)NC(=O)[C@@H]([C@@H](C)CC)NC(=O)[C@H](NC(=O)[C@H](NC(=O)[C@H](CCCN)NC(=O)[C@H]2CCCN2C(=O)[C@H](NC(=O)[C@@H](NC(=O)[C@H](CCC(N)=O)NC(=O)[C@H](NC(=O)CCCC(C)C)C(C)C)C(C)C)C(C)C)[C@@H](C)CC)[C@@H](C)OC(=O)[C@H](C(C)C)NC1=O [Compound 119, [Gln^12]-KF] ({Hexanoyl(5-Me)}-[dV]QV[dV][dP][Orn][d(aIle)][d(aThr)][d(aIle)][dV]F[Dhb]V; ester 8-C)', 1990);

###

System: SK-BR-3
assay.comment: SRB colorimetric assay of cell growth and viability, SK-BR-3
Format: cell-based, human
condition.info: SK-BR-3; 48 hours exposure
Where a SMILES comes first, the peptide text is derived from it. Bridges are numbered along the chain shown (N, C = ends). [ ]: non-standard residue; d: D form. The star is where a group is joined. Bip = N[C@@H](Cc1ccc(-c2ccccc2)cc1)C(=O)O; d(aIle) = CC[C@H](C)[C@@H](N)C(=O)O; d(aThr) = C[C@@H](O)[C@@H](N)C(=O)O; Hexanoyl(5-Me) = CC(C)CCCC(=O)*; Orn = NCCC[C@H](N)C(=O)O; Dhb = C/C=C(\N)C(=O)O
Listed compounds paired with reported TGI SK-BR-3
reported.endpoint: TGI SK-BR-3 (Molar)

INSERT INTO results (compound, measurement) VALUES
  ('C/C=C1\NC(=O)[C@H](Cc2ccccc2)NC(=O)[C@@H](C(C)C)NC(=O)[C@@H]([C@@H](C)CC)NC(=O)[C@H](NC(=O)[C@H](NC(=O)[C@H](CCCN)NC(=O)[C@H]2CCCN2C(=O)[C@H](NC(=O)[C@@H](NC(=O)[C@H](Cc2ccccc2)NC(=O)[C@H](NC(=O)CCCC(C)C)C(C)C)C(C)C)C(C)C)[C@@H](C)CC)[C@@H](C)OC(=O)[C@H](C(C)C)NC1=O [Compound 114, [Phe^12]-KF] ({Hexanoyl(5-Me)}-[dV]FV[dV][dP][Orn][d(aIle)][d(aThr)][d(aIle)][dV]F[Dhb]V; ester 8-C)', '4.62E−07'),
  ('C/C=C1\NC(=O)[C@H](Cc2ccccc2)NC(=O)[C@@H](C(C)C)NC(=O)[C@@H]([C@@H](C)CC)NC(=O)[C@H](NC(=O)[C@H](NC(=O)[C@H](CCCN)NC(=O)[C@H]2CCCN2C(=O)[C@H](NC(=O)[C@@H](NC(=O)[C@H](CCC(N)=O)NC(=O)[C@H](NC(=O)CCCC(C)C)C(C)C)C(C)C)C(C)C)[C@@H](C)CC)[C@@H](C)OC(=O)[C@H](C(C)C)NC1=O [Compound 119, [Gln^12]-KF] ({Hexanoyl(5-Me)}-[dV]QV[dV][dP][Orn][d(aIle)][d(aThr)][d(aIle)][dV]F[Dhb]V; ester 8-C)', '5.34E−07'),
  ('C/C=C1\NC(=O)[C@H](Cc2ccc(-c3ccccc3)cc2)NC(=O)[C@@H](C(C)C)NC(=O)[C@@H]([C@@H](C)CC)NC(=O)[C@H](NC(=O)[C@H](NC(=O)[C@H](CCCN)NC(=O)[C@H]2CCCN2C(=O)[C@H](NC(=O)[C@@H](NC(=O)[C@@H](NC(=O)[C@H](NC(=O)CCCC(C)C)C(C)C)[C@@H](C)O)C(C)C)C(C)C)[C@@H](C)CC)[C@@H](C)OC(=O)[C@H](C(C)C)NC1=O [Compound 86, [Bip^3]-KF] ({Hexanoyl(5-Me)}-[dV]TV[dV][dP][Orn][d(aIle)][d(aThr)][d(aIle)][dV][Bip][Dhb]V; ester 8-C)', '1.79E−07'),
  ('C/C=C1\NC(=O)[C@H](Cc2ccccc2)NC(=O)[C@@H](C(C)C)NC(=O)[C@@H]([C@@H](C)CC)NC(=O)[C@H](NC(=O)[C@H](NC(=O)[C@H](CCCN)NC(=O)[C@H]2CCCN2C(=O)[C@H](NC(=O)[C@@H](NC(=O)[C@H](CC(C)C)NC(=O)[C@H](NC(=O)CCCC(C)C)C(C)C)C(C)C)C(C)C)[C@@H](C)CC)[C@@H](C)OC(=O)[C@H](C(C)C)NC1=O [Compound 113, [Leu^12]-KF] ({Hexanoyl(5-Me)}-[dV]LV[dV][dP][Orn][d(aIle)][d(aThr)][d(aIle)][dV]F[Dhb]V; ester 8-C)', '6.13E−07'),
  ('C/C=C1\NC(=O)[C@H](Cc2cccc(Cl)c2)NC(=O)[C@@H](C(C)C)NC(=O)[C@@H]([C@@H](C)CC)NC(=O)[C@H](NC(=O)[C@H](NC(=O)[C@H](CCCN)NC(=O)[C@H]2CCCN2C(=O)[C@H](NC(=O)[C@@H](NC(=O)[C@@H](NC(=O)[C@H](NC(=O)CCCC(C)C)C(C)C)[C@@H](C)O)C(C)C)C(C)C)[C@@H](C)CC)[C@@H](C)OC(=O)[C@H](C(C)C)NC1=O [Compound 82, [Phe(3-Cl)^3]-KF]', '1.04E−07'),
  ('C/C=C1\NC(=O)[C@H](Cc2ccccc2)NC(=O)[C@@H](C(C)C)NC(=O)[C@@H]([C@@H](C)CC)NC(=O)[C@H](NC(=O)[C@H](NC(=O)[C@H](CCCN)NC(=O)[C@H]2CCCN2C(=O)[C@H](NC(=O)[C@@H](NC(=O)[C@H](CCC(=O)O)NC(=O)[C@H](NC(=O)CCCC(C)C)C(C)C)C(C)C)C(C)C)[C@@H](C)CC)[C@@H](C)OC(=O)[C@H](C(C)C)NC1=O [Compound 115, [Glu^12]-KF] ({Hexanoyl(5-Me)}-[dV]EV[dV][dP][Orn][d(aIle)][d(aThr)][d(aIle)][dV]F[Dhb]V; ester 8-C)', '3.01E−06'),
  ('C/C=C1\NC(=O)[C@H](Cc2ccc(Cl)cc2)NC(=O)[C@@H](C(C)C)NC(=O)[C@@H]([C@@H](C)CC)NC(=O)[C@H](NC(=O)[C@H](NC(=O)[C@H](CCCN)NC(=O)[C@H]2CCCN2C(=O)[C@H](NC(=O)[C@@H](NC(=O)[C@@H](NC(=O)[C@H](NC(=O)CCCC(C)C)C(C)C)[C@@H](C)O)C(C)C)C(C)C)[C@@H](C)CC)[C@@H](C)OC(=O)[C@H](C(C)C)NC1=O [Compound 83, [Phe(4-Cl)^3]-KF]', '5.29E−08'),
  ('C/C=C1\NC(=O)[C@H](Cc2ccccc2)NC(=O)[C@@H](C(C)C)NC(=O)[C@@H]([C@@H](C)CC)NC(=O)[C@H](NC(=O)[C@H](NC(=O)[C@H](CCCN)NC(=O)[C@H]2CCCN2C(=O)[C@H](NC(=O)[C@@H](NC(=O)[C@H](CCCN)NC(=O)[C@H](NC(=O)CCCC(C)C)C(C)C)C(C)C)C(C)C)[C@@H](C)CC)[C@@H](C)OC(=O)[C@H](C(C)C)NC1=O [Compound 116, [Orn^12]-KF] ({Hexanoyl(5-Me)}-[dV][Orn]V[dV][dP][Orn][d(aIle)][d(aThr)][d(aIle)][dV]F[Dhb]V; ester 8-C)', '2.82E−06');
